Source listed as patent US8329686B2.

target: caspase 1 (Homo sapiens); construct: purchased BIOMOL Research Laboratories (Plymouth Meeting, Pa.); test: Enzyme inhibition assay, caspase 1 (fluorogenic Ac-YVAD-AMC); type: biochemical; details: Table 2; read-out: IC50 (nM) Caspase 1
PROPERTY_NAME: IC50 (nM)
A number alone suffices; assume nM.

Value sought: IC50, system caspase 1 (Homo sapiens), item N#CC(C#N)=C1C(=O)N(Cc2ccc(OCCF)cc2)c2ccc(S(=O)(=O)N3CCC[C@H]3COc3cccnc3)cc21 [WC-II-103] . Result: 3500

Entry COc1ccc(CN2C(=O)C(=C(C#N)C#N)c3cc(S(=O)(=O)N4CC[C@H]4COc4cccnc4)ccc32)cc1 [WC-II-87] , tested on caspase 1 (Homo sapiens), has a reported IC50 of 3600

Lab entry: caspase 1 (Homo sapiens) assay, compound N#CC(C#N)=C1C(=O)N(Cc2ccc(Br)cc2)c2ccc(S(=O)(=O)N3CCCC3COc3ccccc3)cc21 (stereo not shown) [Compound 27d] , IC50 = 5700

Measured IC50 for this entry CN1C(=O)C(=C(C#N)C#N)c2cc(S(=O)(=O)N3CCCC3COc3ccccc3)ccc21 (stereo not shown) [Compound 27a] on caspase 1 (Homo sapiens): 2820

----------
Give IC50 for every item shown.
biological target: caspase 1 (Homo sapiens, UniProt P29466); construct: purchased BIOMOL Research Laboratories (Plymouth Meeting, Pa.); experiment: Enzyme inhibition assay, caspase 1 (fluorogenic Ac-YVAD-AMC); assay type: biochemical
Sequence (P29466 120-297 limits assumed): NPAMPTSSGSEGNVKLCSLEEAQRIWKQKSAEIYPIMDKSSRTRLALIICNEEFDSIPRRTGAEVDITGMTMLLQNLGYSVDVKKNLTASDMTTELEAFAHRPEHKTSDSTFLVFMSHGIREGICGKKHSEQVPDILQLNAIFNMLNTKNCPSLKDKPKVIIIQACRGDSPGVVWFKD
Sequence (P29466 317-404 limits assumed): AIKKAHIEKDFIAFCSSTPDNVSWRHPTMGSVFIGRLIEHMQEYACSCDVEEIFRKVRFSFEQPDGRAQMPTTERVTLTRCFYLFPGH

Input N#CC(C#N)=C1C(=O)N(Cc2ccccc2)c2ccc(S(=O)(=O)N3CCCC3COc3ccccc3)cc21 (centres unmarked) [Compound 27b] . Output IC50: 6.22 µM

Entry COc1ccc(CN2C(=O)C(=C(C#N)C#N)c3cc(S(=O)(=O)N4CCCC4COc4cccnc4)ccc32)cc1 (centres unmarked) [Compound 30d] , IC50 reported as 3.9 µM

// field: IC50; key: N#CC(C#N)=C1C(=O)N(Cc2ccc(O)cc2)c2ccc(S(=O)(=O)N3CCCC3COc3cccnc3)cc21 (centres unmarked) [Compound 30b] ; value = 2.72 µM

For this compound ( N#CC(C#N)=C1C(=O)N(Cc2ccccc2)c2ccc(S(=O)(=O)N3CCCC3COc3cccnc3)cc21 (centres unmarked) [Compound 30a] ), measured IC50 is 3.25 µM

Per the records, this compound ( N#CC(C#N)=C1C(=O)N(Cc2ccc(Br)cc2)c2ccc(S(=O)(=O)N3CCCC3COc3cccnc3)cc21 (centres unmarked) [Compound 30c] ) has IC50 equal to 3.4 µM

----------
biological target: caspase 8 (Homo sapiens); construct: purchased Sigma-Aldrich (St. Louis, Mo.); test: Enzyme inhibition assay, caspase 8 (fluorogenic Ac-IETD-AMC); type: biochemical
Sequence (Q14790 217-374 limits assumed): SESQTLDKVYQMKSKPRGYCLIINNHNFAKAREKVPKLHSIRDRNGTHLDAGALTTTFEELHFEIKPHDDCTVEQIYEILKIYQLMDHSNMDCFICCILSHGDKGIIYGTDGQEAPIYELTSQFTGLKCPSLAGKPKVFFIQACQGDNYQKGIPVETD
Sequence (Q14790 385-479 limits assumed): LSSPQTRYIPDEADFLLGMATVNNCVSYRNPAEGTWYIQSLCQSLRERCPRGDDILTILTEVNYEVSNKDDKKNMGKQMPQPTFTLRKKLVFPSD
PROPERTY_NAME: IC50

Note to self: IC50 recorded for O=C1Nc2ccc(S(=O)(=O)N3CCCC3COc3cccnc3)cc2C1=O (centres unmarked) was > 50 µM

Short answer for CN1C(=O)C(=O)c2cc(S(=O)(=O)N3CCCC3COc3cccnc3)ccc21 (centres unmarked) [Compound 21a] : IC50 was > 50 µM

----------
molecular target: caspase-3 (Homo sapiens, UniProt P42574); construct: purchased Sigma-Aldrich (St. Louis, Mo.); assay: Enzyme inhibition assay, caspase 3 (fluorogenic Ac-DEVD-AMC); format: biochemical; details: Table 1; read-out: IC50 (nM) Caspase 3
PROPERTY_NAME: IC50 (nM)
Quick note: give the figure in nM, leave out the unit.

Lab note: `O=C1C(=O)N(Cc2ccc(OCCF)cc2)c2ccc(S(=O)(=O)N3CC[C@H]3COc3cccnc3)cc21` gave IC50 of 3.6

Given item `O=C1C(=O)N(Cc2ccc(OCCF)cc2)c2ccc(S(=O)(=O)N3CCC[C@H]3COc3cccnc3)cc21` , the value recorded as its IC50 is 3.1

Quick note, IC50 for O=C1C(=O)N(Cc2ccc(OCCF)cc2)c2ccc(S(=O)(=O)N3CCCC3COc3ccccc3)cc21 (stereo not drawn) landed at 9.7

----------
So I've got a bunch of compounds here, and I need their IC50 values.
molecular target: caspase 1 (Homo sapiens); construct: purchased BIOMOL Research Laboratories (Plymouth Meeting, Pa.); experiment: Enzyme inhibition assay, caspase 1 (fluorogenic Ac-YVAD-AMC); type: biochemical; conditions: Table 6; read-out: IC50 (nM) caspase-1

Input O=C1Nc2ccc(S(=O)(=O)N3CCCC3COc3cccnc3)cc2C1=O (stereo not shown) . Output IC50: > 5000 nM

Just so you know, measured IC50 for COc1ccc(CN2C(=O)C(=O)c3cc(S(=O)(=O)N4CCCC4COc4cccnc4)ccc32)cc1 (stereo not shown) [Compound 21c] came out at > 10000 nM

Looking up O=C1Nc2ccc(S(=O)(=O)N3CCCC3COc3ccncc3)cc2C1=O (stereo not shown) , I see its IC50 listed as > 5000 nM

Given item CN1C(=O)C(=O)c2cc(S(=O)(=O)N3CCCC3COc3cccnc3)ccc21 (stereo not shown) [Compound 21a] , the value recorded as its IC50 is > 10000 nM

// sample CSc1ccc(CN2C(=O)C(=O)c3cc(S(=O)(=O)N4CCCC4COc4cccnc4)ccc32)cc1 (stereo not shown) [Compound 21d] , its IC50 was > 50000 nM

Reported IC50 ( O=C1C(=O)N(Cc2ccccc2)c2ccc(S(=O)(=O)N3CCCC3COc3cccnc3)cc21 (stereo not shown) [Compound 21b] ) = > 10000 nM

Per the record, O=C1C(=O)N(Cc2ccc(F)cc2)c2ccc(S(=O)(=O)N3CCCC3COc3cccnc3)cc21 (stereo not shown) [Compound 21e] has IC50 of > 10000 nM

----------
molecular target: caspase-3 (Homo sapiens, UniProt P42574); construct: purchased Sigma-Aldrich (St. Louis, Mo.); assay: Enzyme inhibition assay, caspase 3 (fluorogenic Ac-DEVD-AMC); format: biochemical; conditions: IC50 (nM) Casp-3, Table 7
Record form. Attribute: IC50. Fill in for each entry.
Report the figure in nM without appending any unit label.

Record O=C1C(=O)N(Cc2ccc(Br)cc2)c2ccc(S(=O)(=O)N3CCCC3COc3cccnc3)cc21 (stereo not shown) [Compound 28c] , field IC50: 3.6

According to the records, this compound N#CC(C#N)=C1C(=O)N(Cc2ccccc2)c2ccc(S(=O)(=O)N3CCCC3COc3ccccc3)cc21 (stereo not shown) [Compound 27b] displays IC50 of 27.8

// IC50 value for O=C1C(=O)N(Cc2ccc(O)cc2)c2ccc(S(=O)(=O)N3CCCC3COc3cccnc3)cc21 (stereo not shown) [Compound 28b] : 3.9

# compound O=C1C(=O)N(Cc2ccc(Br)cc2)c2ccc(S(=O)(=O)N3CCCC3COc3ccccc3)cc21 (stereo not shown) [Compound 25d] ; its IC50 = 9.85

Quick note, IC50 for N#CC(C#N)=C1C(=O)N(Cc2ccccc2)c2ccc(S(=O)(=O)N3CCCC3COc3cccnc3)cc21 (stereo not shown) [Compound 30a] landed at 7.6

For this compound ( COc1ccc(CN2C(=O)C(=C(C#N)C#N)c3cc(S(=O)(=O)N4CCCC4COc4cccnc4)ccc32)cc1 (stereo not shown) [Compound 30d] ), measured IC50 is 7.8

Entry under test: N#CC(C#N)=C1C(=O)N(Cc2ccc(O)cc2)c2ccc(S(=O)(=O)N3CCCC3COc3cccnc3)cc21 (stereo not shown) [Compound 30b] . Its IC50 was 7.8

----------
molecular target: caspase 7 (Homo sapiens, UniProt P55210); construct: purchased Sigma-Aldrich (St. Louis, Mo.); test: Enzyme inhibition assay, caspase 7 (fluorogenic Ac-DEVD-AMC); assay type: biochemical; settings: Table 7; read-out: IC50 (nM) Casp-7
Sequence (P55210 24-198 limits assumed): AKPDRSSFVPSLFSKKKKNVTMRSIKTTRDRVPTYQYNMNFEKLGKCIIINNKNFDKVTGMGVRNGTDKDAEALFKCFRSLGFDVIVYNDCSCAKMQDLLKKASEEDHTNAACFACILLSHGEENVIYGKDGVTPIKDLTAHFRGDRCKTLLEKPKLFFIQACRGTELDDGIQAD
Sequence (P55210 207-303 limits assumed): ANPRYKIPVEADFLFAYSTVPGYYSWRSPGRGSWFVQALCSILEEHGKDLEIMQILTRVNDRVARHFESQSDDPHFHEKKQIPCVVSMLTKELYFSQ
PROPERTY_NAME: IC50
Give the number first and the unit second.

# molecule N#CC(C#N)=C1C(=O)N(Cc2ccc(Br)cc2)c2ccc(S(=O)(=O)N3CCCC3COc3ccccc3)cc21 (stereo not shown) [Compound 27d] ; its IC50 = 92.2 nM

Record N#CC(C#N)=C1C(=O)Nc2ccc(S(=O)(=O)N3CCCC3COc3ccccc3)cc21 (stereo not shown) [Compound 26] , field IC50: 1580 nM

IC50 in this record for CN1C(=O)C(=C(C#N)C#N)c2cc(S(=O)(=O)N3CCCC3COc3ccccc3)ccc21 (stereo not shown) [Compound 27a] : 785 nM

Reported IC50 of N#CC(C#N)=C1C(=O)N(Cc2ccc(O)cc2)c2ccc(S(=O)(=O)N3CCC[C@H]3COc3ccccc3)cc21 [Compound 27c] : 126 nM

----------
Target: caspase-3 (Homo sapiens, UniProt P42574)
Construct: purchased Sigma-Aldrich (St. Louis, Mo.)
Sequence (P42574 29-175 limits assumed): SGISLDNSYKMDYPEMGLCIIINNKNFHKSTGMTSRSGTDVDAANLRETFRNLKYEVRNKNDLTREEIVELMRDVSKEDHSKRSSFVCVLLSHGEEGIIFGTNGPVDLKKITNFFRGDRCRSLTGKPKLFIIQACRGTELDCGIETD
Sequence (P42574 176-277 limits assumed): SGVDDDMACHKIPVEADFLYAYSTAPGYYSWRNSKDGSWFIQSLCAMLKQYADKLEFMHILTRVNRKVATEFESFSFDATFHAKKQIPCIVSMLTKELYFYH
Test: Enzyme inhibition assay, caspase 3 (fluorogenic Ac-DEVD-AMC)
Format: biochemical
Conditions: read-out: IC50 for caspase-3
PROPERTY_NAME: pIC50
Note: pIC50 values are expressed as the negative base-10 logarithm of concentration in M.

According to the records, this compound N#CC(C#N)=C1C(=O)Nc2ccc(S(=O)(=O)N3CCCC3COc3ccccc3)cc21 (stereo not shown) displays pIC50 of 6.57

Lab note: N#CC(C#N)=C1C(=O)N(Cc2ccc(O)cc2)c2ccc(S(=O)(=O)N3CCC[C@H]3COc3ccccc3)cc21 [Compound 27c] gave pIC50 of 7.50

N#CC(C#N)=C1C(=O)N(Cc2ccc(Br)cc2)c2ccc(S(=O)(=O)N3CCCC3COc3ccccc3)cc21 (stereo not shown) [Compound 27d] yielded pIC50 of 7.70

Lab book: pIC50 of COc1ccc(CN2C(=O)C(=O)c3cc(S(=O)(=O)N4CCCC4COc4cccnc4)ccc32)cc1 (stereo not shown) [Compound 21c] noted as 8.41
